Molecular target: T1, human TL1A (Fitzgerald #30R-AT070) (human, UniProt O95150 72-251, limits assumed)
T1 construct: Coated on the ELISA plate at 1 ug/mL; also called TNFSF15
T1 sequence (looked up): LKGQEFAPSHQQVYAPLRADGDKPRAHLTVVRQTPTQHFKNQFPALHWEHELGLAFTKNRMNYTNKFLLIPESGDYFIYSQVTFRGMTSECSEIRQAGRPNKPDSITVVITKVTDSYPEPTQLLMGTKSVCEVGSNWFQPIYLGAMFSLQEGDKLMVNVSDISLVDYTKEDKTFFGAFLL
Assay: ELISA titration, coated human TL1A, culture supernatant
Parameter Measured: Kd (nM)

- Binder: "A48 (antibody, human IgG1, V domains shown, human IgG1/kappa (pFuse vectors), culture supernatant) VH: QVQLVQSGAEVKKPGASVKVSCKASGFDIQDTYMHWVKQRPGQGLEWIGRIDPASGHTKYDPKFQVRATITTDTSTSTAYLELSSLRSEDTAVYYCARSGGLPDVWGQGTTVTVSS VL: EIVLTQSPGTLSASPGERATLSCRASSSVSYMYWYQQKPGQAPRPWIYATSNLASGVPDRFSGSGSGTDYTLTISRVEPEDFAVYYCQQWSGNPRTFGGGTKLEIK"
  Recorded Value: 0.076
- Binder: "A130 (antibody, human IgG1, V domains shown, human IgG1/kappa (pFuse vectors), culture supernatant) VH: QVQLVQSGAEVKKPGASVKVSCKASGFDIQDTYMHWVRQAPGQGLEWMGRIEPASGHIKYDPKFQVRVTMTRDTSTSTVYMELSSLRSEDTAVYYCARSGGLPDWWGQGTTVTVSS VL: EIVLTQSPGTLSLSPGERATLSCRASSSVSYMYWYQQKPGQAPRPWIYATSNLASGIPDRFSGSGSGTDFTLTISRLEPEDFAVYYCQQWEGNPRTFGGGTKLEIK"
  Recorded Value: 0.075
- Binder: "A94 (antibody, human IgG1, V domains shown, human IgG1/kappa (pFuse vectors), culture supernatant) VH: QVQLVQSGAEVKKPGASVKVSCKASGFDIQDTYMHWVRQAPGQGLEWMGRIEPASGHIKYDPKFQVRATITRDTSTSTVYMELSSLRSEDTAVYYCARSGGLPDWWGQGTTVTVSS VL: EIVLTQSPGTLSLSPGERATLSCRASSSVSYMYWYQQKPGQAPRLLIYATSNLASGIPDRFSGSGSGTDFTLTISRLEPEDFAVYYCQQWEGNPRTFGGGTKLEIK"
  Recorded Value: 0.081
